Where these numbers come from: ChEMBL document CHEMBL1201862

# Test system: LOX IMVI
# Experiment Description: NCI tumour cell line growth inhibition, 48 h
The source made the active and inactive calls. Cut-off read from the data, not from the text of the source: active = GI50 up to about 1.1 µM and inactive = higher.
Choose the fitting class; nothing outside active, inactive is accepted.

Below are worked cases with known answers.
CCOC(=O)c1cc(C)n(CN(CCO)Cn2nc(C(=O)OCC)cc2C)n1 : inactive
CC(=O)OCC1OC(OCCCOP(=S)(OCCC#N)OCC2OC(n3ccc(N)nc3=O)C(OC(=O)c3ccccc3)C2OC(=O)c2ccccc2)C(OC(C)=O)C(OC(C)=O)C1OC(C)=O (centres undefined) : inactive
CC1(C=O)CC(CCc2ccccc2)NC1Cc1ccc(O)cc1 (centres undefined) : inactive
N#C/C(=C\c1ccccc1)c1nc(-c2cc3ccccc3oc2=O)cs1 : inactive
CC(=O)CC1=C(OC(C)C)C2(OCCO2)C1O (centres undefined) : inactive
CO/C(=N\N=C\c1ccc(OC)c(OC)c1)c1ccncc1 : inactive
CC1(c2cccc3ccccc23)OC(=O)c2ccccc21 (centres undefined) : inactive
O[C@H]1[C@H](O)[C@@H](Cn2nnc(-c3ccccc3)c2-c2ccccc2)OCO[C@@H]1Cn1nnc(-c2ccccc2)c1-c1ccccc1 : inactive

Can you look up the reported call for "CN(C)c1ccc(/C=C/C(=O)N[C@@H]2C(=O)N3[C@@H]2SC(C)(C)[C@@H]3C(=O)O)cc1" for me?
inactive

Can you look up the reported call for CC(=O)c1ccccc1NC(=O)C(=O)C(C(=O)c1ccc2ccccc2c1)C1OC(=O)c2ccccc21 (centres undefined) for me?
inactive

Can you look up the reported call for CC(C)(C)C(=O)OCOP(=O)(OCOC(=O)C(C)(C)C)OCC1OC(n2ccc(=O)[nH]c2=O)C(N=[N+]=[N-])C1O (centres undefined) for me?
inactive

Can you look up the reported call for "CCOC(=O)c1nc2c(nc1C(=O)OCC)C(=O)c1ccccc1C2=O" for me?
active

Can you look up the reported call for "COc1cc2c(cc1OCc1ccccc1)NC(=S)[C@@H]1CCCN1C2=S" for me?
inactive

Can you look up the reported call for CCOP(=O)(OCC)C1CC(n2cc(C)c(=O)[nH]c2=O)OC1CO (centres undefined) for me?
inactive

Can you look up the reported call for "O=[N+]([O-])c1ccc2c(/N=N/c3c(O)ccc4ccccc34)c(O)cc(S(=O)(=O)O)c2c1" for me?
inactive

Can you look up the reported call for CCC1(O)C(=O)OCc2c1cc1n(c2=O)Cc2cc3cc4c(cc3nc2-1)OCO4 (centres undefined) for me?
active

Can you look up the reported call for OC(c1ccc(C(F)(F)F)cc1)C(F)(F)c1nc2ccccc2o1 (centres undefined) for me?
inactive

Can you look up the reported call for CCN1C(=O)c2cc(OC)c(OC)cc2C(=O)C12OC(=O)c1cc3c(cc12)OCO3 (centres undefined) for me?
inactive

Can you look up the reported call for "CC[C@@]1(O)C(=O)OCc2c1cc1n(c2=O)Cc2cc3cc4c(cc3nc2-1)OCO4" for me?
active
